Below: a set of entries, each annotated with reported pEC50.
system: genotype 1a-H77 subgenomic replicon cell line; assay: microbe, parasite or virus in culture; format: cell-based, HCV; conditions: Hepatitis C virus, read-out: EC50 1a
pEC50: −log10 of the molar value.

Record "COc1c(/C=C\c2ccc(NS(C)(=O)=O)cc2)cc(N2CCC(=O)NC2=O)cc1C(C)(C)C" , field pEC50: 7.00 to 8.00

Kindly note the recorded pEC50 for "COc1c(-c2nc3ccc(NS(C)(=O)=O)cc3s2)cc(N2CCC(=O)NC2=O)cc1C(C)(C)C" , which is 6.00 to 7.00

// next entry
What the record says about "CCOc1c(/C=C/c2ccc(NS(C)(=O)=O)cc2)cc(-n2ccc(=O)[nH]c2=O)cc1C(C)(C)C" : pEC50 is 6.00 to 7.00

====

biological target: HCV polymerase 1A (Δ21 NS5B, H77) (Hepatitis C virus genotype 1a); construct: 20 to 50 nM Δ21 NS5B; test: biochemical; conditions: IC50 1a
Sequence (P27958 2421-2990, stated change not applied): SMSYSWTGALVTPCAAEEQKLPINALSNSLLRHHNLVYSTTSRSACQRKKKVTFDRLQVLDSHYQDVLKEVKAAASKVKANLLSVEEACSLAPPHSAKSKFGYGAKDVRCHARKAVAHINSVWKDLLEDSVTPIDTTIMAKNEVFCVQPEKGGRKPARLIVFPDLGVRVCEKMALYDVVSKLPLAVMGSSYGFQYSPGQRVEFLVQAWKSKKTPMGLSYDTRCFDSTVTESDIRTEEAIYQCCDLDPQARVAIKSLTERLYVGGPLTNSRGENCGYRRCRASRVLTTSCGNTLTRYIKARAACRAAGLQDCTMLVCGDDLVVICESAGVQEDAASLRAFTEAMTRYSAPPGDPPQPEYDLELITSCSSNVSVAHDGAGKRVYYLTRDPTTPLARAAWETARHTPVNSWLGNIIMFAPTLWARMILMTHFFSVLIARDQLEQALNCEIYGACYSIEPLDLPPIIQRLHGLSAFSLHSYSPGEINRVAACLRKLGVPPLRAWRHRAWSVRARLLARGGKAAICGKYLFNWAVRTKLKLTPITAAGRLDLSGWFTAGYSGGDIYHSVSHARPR
Consider the following compounds and their measured IC50 readings.

Take a look at these entries with their results.
Entry CC(C)(C)c1cc(N2CCC(=O)NC2=O)cc(NC(=O)c2ccccc2)c1O [IA-L4-1.2] , IC50 reported as > 1000 nM

Given item COc1c(C#Cc2ccc(NS(C)(=O)=O)cc2C(F)(F)F)cc(N2CCC(=O)NC2=O)cc1C(C)(C)C [IA-L2-1.18] , the value recorded as its IC50 is < 10 nM

The value of IC50 measured for the compound COc1c(C#Cc2ccc(NS(C)(=O)=O)cc2O)cc(-n2ccc(=O)[nH]c2=O)cc1C(C)(C)C [IB-L2-1.6] turned out to be < 10 nM

The reported value for COc1c(-c2ccc3c(c2)CCC3CNS(C)(=O)=O)cc(-n2ccc(=O)[nH]c2=O)cc1C(C)(C)C (stereo not drawn) [IB-L0-2.17] in terms of IC50 is < 10 nM

Value of IC50 reported for the compound COc1c(C#Cc2ccc(NS(C)(=O)=O)cc2F)cc(N2CCC(=O)NC2=O)cc1C(C)(C)C [IA-L2-1.12] is < 10 nM

The compound listed as COc1c(C(=O)Nc2ccc(N(C)S(C)(=O)=O)cc2)cc(N2CCC(=O)N(C)C2=O)cc1C(C)(C)C [IA-L3-1.25] shows IC50 equal to > 1000 nM

Entry under test: CC(C)(C)c1cc(N2CCC(=O)NC2=O)cc(C(=O)Nc2ccc(NS(=O)(=O)CCN3CCOCC3)cc2)c1O [IA-L3-1.14] . Its IC50 was 10 to 100 nM

// COc1ccc(-c2cc(N3CCC(=O)NC3=O)cc(C(C)(C)C)c2OC)cc1/C=N/NS(C)(=O)=O [IA-L0-1.5] : IC50 value = 100 to 1000 nM

Entry COc1c(-c2cccc(/C(C)=N\NS(C)(=O)=O)c2)cc(N2CCC(=O)NC2=O)cc1C(C)(C)C [IA-L0-1.8] , IC50 reported as 100 to 1000 nM

Looking up COc1c(C(=O)Nc2ccc3c(c2)CC(=O)N3)cc(N2CCC(=O)NC2=O)cc1C(C)(C)C [IA-L3-2.2] , I see its IC50 listed as 100 to 1000 nM

Next:
Short answer for COc1c(C(=O)Nc2ccc(N)nc2)cc(N2CCC(=O)NC2=O)cc1C(C)(C)C [IA-L3-1.100] : IC50 was > 1000 nM

Notebook: COc1c(C(=O)Nc2ccc(NS(=O)(=O)CCO)cc2)cc(N2CCC(=O)NC2=O)cc1C(C)(C)C [IA-L3-1.122] , IC50 read as 10 to 100 nM

CN(Cc1cc(N2CCC(=O)NC2=O)cc(C(C)(C)C)c1O)C1CCCCC1 [IA-L9-1.2, 2,2,2-trifluoroacetate] has a reported IC50 of > 1000 nM

The measured IC50 associated with CC(C)(C)c1cc(N2CCC(=O)NC2=O)cc(C(=O)Nc2ccc(OCC(N)=O)cc2)c1O [IA-L3-1.18] reads > 1000 nM

According to the records, this compound COc1c(C(=O)Nc2cc(CN(C)S(C)(=O)=O)cs2)cc(N2CCC(=O)NC2=O)cc1C(C)(C)C [IA-L3-1.97] displays IC50 of > 1000 nM

====

As shown below, each of these molecules has a reported IC50 value.
target: HCV polymerase 1B (Δ21 NS5B, BK) (Hepatitis C virus genotype 1b); construct: 20 to 50 nM Δ21 NS5B; assay: biochemical
Sequence (P26663 2420-2989, stated change not applied): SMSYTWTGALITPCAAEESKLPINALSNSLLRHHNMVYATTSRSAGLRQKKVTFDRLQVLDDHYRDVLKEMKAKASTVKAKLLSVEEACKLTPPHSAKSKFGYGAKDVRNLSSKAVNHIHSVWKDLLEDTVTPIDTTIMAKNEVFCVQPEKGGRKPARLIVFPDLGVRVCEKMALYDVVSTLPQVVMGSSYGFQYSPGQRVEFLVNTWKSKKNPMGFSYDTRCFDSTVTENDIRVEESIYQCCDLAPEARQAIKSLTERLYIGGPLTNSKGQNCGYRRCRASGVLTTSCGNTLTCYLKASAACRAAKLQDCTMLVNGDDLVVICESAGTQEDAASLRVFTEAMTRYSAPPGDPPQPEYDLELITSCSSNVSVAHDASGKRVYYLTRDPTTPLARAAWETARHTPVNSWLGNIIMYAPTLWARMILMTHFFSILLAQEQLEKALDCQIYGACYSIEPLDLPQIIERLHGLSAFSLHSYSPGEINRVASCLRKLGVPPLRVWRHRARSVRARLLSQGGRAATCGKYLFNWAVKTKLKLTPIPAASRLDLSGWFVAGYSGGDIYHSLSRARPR

Observed IC50, HCV polymerase 1B (Δ21 NS5B, BK) (Hepatitis C virus genotype 1b), "COc1c(C(=O)Nc2ccc(NS(C)(=O)=O)cn2)cc(N2CCC(=O)NC2=O)cc1C(C)(C)C" : 100 to 1000 nM

Simply: "COc1c(-c2ncc(-c3ccc([N+](=O)[O-])cc3)o2)cc(N2CCC(=O)NC2=O)cc1C(C)(C)C" , HCV polymerase 1B (Δ21 NS5B, BK) (Hepatitis C virus genotype 1b), IC50 = > 1000 nM

Continuing:
The molecule "COc1cc(NS(C)(=O)=O)ccc1NC(=O)c1cc(N2CCC(=O)NC2=O)cc(C(C)(C)C)c1O" on HCV polymerase 1B (Δ21 NS5B, BK) (Hepatitis C virus genotype 1b): IC50 was < 10 nM

Per the reported HCV polymerase 1B (Δ21 NS5B, BK) (Hepatitis C virus genotype 1b) data, "COc1c(C#Cc2cc(F)c(NS(C)(=O)=O)c(F)c2)cc(-n2ccc(=O)[nH]c2=O)cc1C(C)(C)C" has IC50 of 10 to 100 nM

Log: HCV polymerase 1B (Δ21 NS5B, BK) (Hepatitis C virus genotype 1b), molecule "COc1c(C#Cc2ccc(NS(C)(=O)=O)cc2)cc(N2CCC(=O)NC2=O)cc1C1CC1" , IC50 = 100 to 1000 nM

HCV polymerase 1B (Δ21 NS5B, BK) (Hepatitis C virus genotype 1b) IC50 of COc1c(-c2ccc3c(c2)CCC3CNS(C)(=O)=O)cc(-n2ccc(=O)[nH]c2=O)cc1C(C)(C)C (stereo not shown) is 10 to 100 nM

IC50 for HCV polymerase 1B (Δ21 NS5B, BK) (Hepatitis C virus genotype 1b) with input "COc1c(C(=O)Nc2ccc(NS(=O)(=O)CC(F)(F)F)cc2)cc(N2CCC(=O)NC2=O)cc1C(C)(C)C" equals 100 to 1000 nM

====

Below, each of the compounds is paired with its reported pIC50 value.
target: HCV polymerase 1A (Δ21 NS5B, H77) (Hepatitis C virus genotype 1a); construct: 20 to 50 nM Δ21 NS5B; assay: biochemical; settings: IC50 1a
pIC50: −log10 of the molar value. Where a name gives a salt, the structure may show the parent alone.

Look over these answered cases.
Entry CC(C)(C)c1cc(N2CCC(=O)NC2=O)cc(CN2CCCC(C(N)=O)C2)c1O (centres unmarked) [IA-L5-1-1.8, trifluoroacetic acid salt] , pIC50 reported as < 6.00

The compound listed as "COC(=O)C1CCN(Cc2cc(N3CCC(=O)NC3=O)cc(C(C)(C)C)c2O)CC1" shows pIC50 equal to < 6.00

// sample "Cc1cc(NS(C)(=O)=O)ccc1C#Cc1cc(N2CCC(=O)NC2=O)cc(C(C)(C)C)c1" , its pIC50 was > 8.00

The reported value for "COc1c(C(=O)Nc2ccc(NS(C)(=O)=O)nc2)cc(N2CCC(=O)NC2=O)cc1C(C)(C)C" in terms of pIC50 is 7.00 to 8.00

Lookup result for COc1c(C#Cc2ccc(NS(C)(=O)=O)nc2)cc(N2CCC(=O)NC2=O)cc1C(C)(C)C [IA-L2-1.26, 2,2,2-trifluoroacetate] ; measured pIC50: 7.00 to 8.00

Continuing:
Value of pIC50 reported for the compound "CCc1cc(N2CCC(=O)NC2=O)cc(C(=O)Nc2ccc(NS(C)(=O)=O)cc2)c1O" is < 6.00

The compound "CC(C)(C)c1cc(N2CCC(=O)NC2=O)cc(NC(=O)c2ccc(N)cc2)c1O" showed pIC50 equal to < 6.00

# compound "COc1c(C(=O)Nc2ccc(N(C(=O)OCC(C)C)S(C)(=O)=O)cc2)cc(N2CCC(=O)NC2=O)cc1C(C)(C)C" ; its pIC50 = < 6.00

Form: compound = "COc1c(-c2ncc(-c3ccc([N+](=O)[O-])cc3)o2)cc(N2CCC(=O)NC2=O)cc1C(C)(C)C" ; pIC50 = < 6.00

Noted for "CC(C)(C)c1cc(C#Cc2ccc(NS(C)(=O)=O)cc2Cl)cc(N2CCC(=O)NC2=O)c1" : its pIC50 reads > 8.00

Value of measured pIC50 for the entry "CN(C(=O)c1cc(N2CCC(=O)NC2=O)cc(C(C)(C)C)c1O)c1ccc(NS(C)(=O)=O)cc1" : < 6.00
